# assayedSystem: serotonin (5-HT) reuptake (Rattus norvegicus, UniProt P31652)
# Construct: synaptosomes are freshly isolated from areas of the rat brain; from tissue; host or cells: rat brain synaptosomes (P2 fraction)
# Sequence (P31652 whole entry): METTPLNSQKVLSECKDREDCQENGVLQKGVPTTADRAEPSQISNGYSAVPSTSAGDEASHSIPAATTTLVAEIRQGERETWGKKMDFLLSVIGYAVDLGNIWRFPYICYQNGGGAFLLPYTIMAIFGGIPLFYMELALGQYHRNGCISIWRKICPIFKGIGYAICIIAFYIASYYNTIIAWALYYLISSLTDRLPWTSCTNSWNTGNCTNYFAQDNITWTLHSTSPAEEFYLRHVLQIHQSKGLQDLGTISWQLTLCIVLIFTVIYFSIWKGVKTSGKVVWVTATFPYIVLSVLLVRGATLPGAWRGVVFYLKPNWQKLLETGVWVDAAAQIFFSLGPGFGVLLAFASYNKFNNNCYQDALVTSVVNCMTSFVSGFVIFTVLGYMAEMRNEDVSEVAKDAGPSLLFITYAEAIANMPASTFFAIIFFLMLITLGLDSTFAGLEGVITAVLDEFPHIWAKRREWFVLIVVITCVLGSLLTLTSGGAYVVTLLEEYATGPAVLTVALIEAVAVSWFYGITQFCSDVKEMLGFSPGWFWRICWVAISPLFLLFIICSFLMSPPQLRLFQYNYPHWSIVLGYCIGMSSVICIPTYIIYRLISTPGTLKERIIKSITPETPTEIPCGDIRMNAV
# protocolNotes: Inhibition of serotonin (5HT) reuptake in synaptosomes from rat brain
# Type: biochemical
# assayConditions: Table 2; test concentration 10 μM; read-out: 5-HT reuptake
# Experimental: Binding data of the compounds on the μ opioid receptor and data on the inhibition of reuptake of serotonin (5-HT) are given in Table 1. The data for the μ receptor were measured at a test concentration of 1 μM, and those for the serotonin reuptake at 10 μM. The values are stated in % inhibition. Inhibition of Serotonin (5HT) Reuptake In order to be able to carry out these in vitro studies, synaptosomes are freshly isolated from areas of the rat brain. […]
Record form. Attribute: inhibition at 10 µM. Fill in for each entry.
Answers are plain numbers, in %.

Below, 3 molecules whose answers are already recorded.
{"molecule": "CN(CCOCC(=O)NC1CCC(C(c2ccccc2)N2CCCCC2)CC1)S(=O)(=O)c1c(Cl)cc(Cl)cc1Cl (stereo not shown)", "endpointUnit": "%", "inhibition at 10 µM": 75}
{"molecule": "O=C(COCCN(C1CC1)S(=O)(=O)c1c(Cl)cc(Cl)cc1Cl)NC1CCC(C(c2ccccc2)N2CCCCC2)CC1 (stereo not shown)", "endpointUnit": "%", "inhibition at 10 µM": 51}
{"molecule": "CN(C)C(c1ccccc1)C1CCC(NC(=O)COCCN(C)S(=O)(=O)c2c(Cl)cc(Cl)cc2Cl)CC1 (stereo not shown)", "endpointUnit": "%", "inhibition at 10 µM": 75}

**Q:** Give me measured inhibition at 10 µM, please, for this molecule: CN(C)C(c1ccccc1)C1CCC(NC(=O)COC2CCN(S(=O)(=O)c3c(Cl)cc(Cl)cc3Cl)C2)CC1 (stereo not shown)
**A:** 86

###

# assayedSystem: human μ opiate receptor (Homo sapiens)
# Construct: purchased PerkinElmer Life Sciences, Zaventem, Belgium RB-HOM; host or cells: CHO-K1 cells (membrane preparation)
# Sequence (P35372 whole entry): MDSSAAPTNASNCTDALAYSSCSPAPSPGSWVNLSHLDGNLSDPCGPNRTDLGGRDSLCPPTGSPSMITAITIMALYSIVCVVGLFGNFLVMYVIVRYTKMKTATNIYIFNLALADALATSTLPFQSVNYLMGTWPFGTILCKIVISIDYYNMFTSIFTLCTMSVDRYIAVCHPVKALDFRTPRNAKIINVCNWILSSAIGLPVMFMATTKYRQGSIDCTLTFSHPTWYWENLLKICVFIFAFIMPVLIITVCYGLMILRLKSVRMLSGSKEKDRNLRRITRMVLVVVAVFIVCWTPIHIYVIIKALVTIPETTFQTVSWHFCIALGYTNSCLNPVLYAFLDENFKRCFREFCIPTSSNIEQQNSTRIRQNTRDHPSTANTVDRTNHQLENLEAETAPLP
# protocolNotes: Affinity for the human μ opiate receptor ([3H]-naloxone displacement, CHO-K1 receptor membrane preparation, SPA)
# Assay type: binding
# assayConditions: test concentration of 1 μM
measurementType: μ (binding on the μ opioid receptor, % inhibition) (%)
One number for each entry, in %.

Recorded results for 5 compounds are shown here.
{"compound": "COc1ccc(S(=O)(=O)N2CCCCC2COCC(=O)NCCC2CCC(C(c3ccc(F)cc3)N(C)C)CC2)c(OC)c1 (stereo not shown)", "assayedSystem": "human μ opiate receptor (Homo sapiens)", "endpointUnit": "%", "numericReadout": 43}
{"compound": "Cc1cc(C)c(S(=O)(=O)N(C)CCOCC(=O)NCCC2CCC(C(c3cccs3)N(C)C)CC2)c(C)c1 (stereo not shown)", "assayedSystem": "human μ opiate receptor (Homo sapiens)", "endpointUnit": "%", "numericReadout": 59}
{"compound": "COc1cc(C)c(S(=O)(=O)N2CCC(OCC(=O)NC3CCC(C(c4cccc(F)c4)N(C)C)CC3)C2)c(C)c1 (stereo not shown)", "assayedSystem": "human μ opiate receptor (Homo sapiens)", "endpointUnit": "%", "numericReadout": 77}
{"compound": "Cc1cc(C)c(S(=O)(=O)N(C)CCOCC(=O)NCCC2CCC(C(c3ccc(Cl)cc3)N(C)C)CC2)c(C)c1 (stereo not shown)", "assayedSystem": "human μ opiate receptor (Homo sapiens)", "endpointUnit": "%", "numericReadout": 53}
{"compound": "COc1ccc(S(=O)(=O)N2CCC(OCC(=O)NCCC3CCC(C(c4ccc(Cl)cc4)N(C)C)CC3)C2)cc1OC (stereo not shown)", "assayedSystem": "human μ opiate receptor (Homo sapiens)", "endpointUnit": "%", "numericReadout": 69}

Batch of 4 compounds: report μ (binding on the μ opioid receptor, % inhibition) for each.
1. COc1cc(C)c(S(=O)(=O)N2CCC(OCC(=O)NC3CCC(C(c4ccc(F)cc4)N(C)C)CC3)CC2)c(C)c1C (stereo not shown)
2. COc1cc(C)c(S(=O)(=O)N(CCOCC(=O)NCC2CCC(C(c3ccc(Cl)cc3)N(C)C)CC2)Cc2ccccc2)c(C)c1C (stereo not shown)
3. CCN(CCOCC(=O)NCCC1CCC(C(c2cccc(F)c2)N(C)C)CC1)S(=O)(=O)c1c(C)cc(OC)c(C)c1C (stereo not shown)
4. COc1cc(C)c(S(=O)(=O)N(CCOCC(=O)NCCC2CCC(C(c3cccs3)N(C)C)CC2)Cc2ccccc2)c(C)c1C (stereo not shown)

**A:**
48
22
85
83

###

For each record, write down the corresponding B1R Ant. h [10 μM] % Inhibition.
# assayedSystem: human bradykinin 1 receptor (B1R) (Homo sapiens, UniProt P46663)
# Construct: expressed in transfected cells; host or cells: CHO K1 cells
# protocolNotes: Functional investigation on the human bradykinin 1 receptor (B1R), Ca2+ FLIPR assay in CHO K1 hB1R cells
# Format: cell-based
# assayConditions: B1R antagonism human; test substance 10 μM; Ca2+ FLIPR, CHO K1 hB1R cells
Give bare numbers, in %.

Look over these answered cases.
{"compound": "COc1cc(C)c(S(=O)(=O)N2CCN(CCOCC(=O)NCC3CCC(C(c4cccc(F)c4)N(C)C)CC3)CC2)c(C)c1C (stereo not shown) [Example 223]", "B1R Ant. h [10 μM] % Inhibition [%]": 52}
{"compound": "Cc1cc(C)c(S(=O)(=O)N(C)CCOCC(=O)NCCC2CCC(C(c3ccc(F)cc3)N(C)C)CC2)c(C)c1 (stereo not shown) [Example 417]", "B1R Ant. h [10 μM] % Inhibition [%]": 100}
{"compound": "COc1ccc(S(=O)(=O)N2CCCCC2COCC(=O)NCCC2CCC(C(c3ccc(Cl)cc3)N(C)C)CC2)cc1 (stereo not shown) [Example 311]", "B1R Ant. h [10 μM] % Inhibition [%]": 69}

As a next step, examine the compound that follows.
**Q:** Item CN(C)C(c1cccc(F)c1)C1CCC(CNC(=O)COC2CCN(S(=O)(=O)c3ccc(Cl)cc3)C2)CC1 (stereo not shown) [Example 258] : provide B1R Ant. h [10 μM] % Inhibition
**A:** −12

###

# assayedSystem: human bradykinin 1 receptor (B1R) (Homo sapiens, UniProt P46663)
# Construct: expressed in transfected cells; host or cells: CHO K1 cells
# Sequence (P46663 1-353): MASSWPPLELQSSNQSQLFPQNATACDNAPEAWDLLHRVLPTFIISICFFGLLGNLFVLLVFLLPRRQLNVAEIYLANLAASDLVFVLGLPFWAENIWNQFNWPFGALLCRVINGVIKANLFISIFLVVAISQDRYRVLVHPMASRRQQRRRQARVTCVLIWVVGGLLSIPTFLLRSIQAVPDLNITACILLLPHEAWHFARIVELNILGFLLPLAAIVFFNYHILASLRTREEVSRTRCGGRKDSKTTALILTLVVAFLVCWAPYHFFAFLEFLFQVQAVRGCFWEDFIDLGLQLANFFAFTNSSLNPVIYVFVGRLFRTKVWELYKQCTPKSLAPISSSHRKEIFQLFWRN
# protocolNotes: Functional investigation on the human bradykinin 1 receptor (B1R), Ca2+ FLIPR assay in CHO K1 hB1R cells
# Format: cell-based
# assayConditions: B1R antagonism human; test substance 10 μM; Ca2+ FLIPR, CHO K1 hB1R cells
Would you kindly list B1R Ant. h [10 μM] % Inhibition for each of these compounds?
Answers are plain numbers, in %.

Completed entries (count: 4):
{"compound": "COc1ccc(S(=O)(=O)N2CCCCC2CCOCC(=O)NCC2CCC(C(c3cccc(F)c3)N(C)C)CC2)cc1 (stereo not shown)", "B1R Ant. h [10 μM] % Inhibition, %": 42}
{"compound": "Cc1ccc(S(=O)(=O)N2CCC(OCC(=O)NCC3CCC(C(c4ccc(Cl)cc4)N(C)C)CC3)C2)cc1 (stereo not shown)", "B1R Ant. h [10 μM] % Inhibition, %": 22}
{"compound": "COc1ccc(S(=O)(=O)N2CCCC2COCC(=O)NCC2CCC(C(c3cccc(F)c3)N(C)C)CC2)cc1 (stereo not shown)", "B1R Ant. h [10 μM] % Inhibition, %": 34}
{"compound": "COc1ccc(S(=O)(=O)N2CCCCC2COCC(=O)NC2CCC(C(c3cccs3)N(C)C)CC2)cc1 (stereo not shown)", "B1R Ant. h [10 μM] % Inhibition, %": 16}

Answer for every listed entry: what is its B1R Ant. h [10 μM] % Inhibition? The entries follow.
1. Cc1cc(C)c(S(=O)(=O)N2CCC(OCC(=O)NCCC3CCC(C(c4cccc(F)c4)N(C)C)CC3)C2)c(C)c1 (stereo not shown)
2. Cc1cc(C)c(S(=O)(=O)N2CCC(OCC(=O)NCC3CCC(C(c4ccc(Cl)cc4)N(C)C)CC3)C2)c(C)c1 (stereo not shown)
3. CN(C)C(c1cccc(F)c1)C1CCC(CCNC(=O)COC2CCN(S(=O)(=O)c3ccccc3)CC2)CC1 (stereo not shown)

**A:**
1. 77
2. 97
3. −20
